# Test system: SW-620
# experiment.summary: NCI tumour cell line growth inhibition, 48 h
Active and inactive are the calls of the source. No stated cut-off is given here; in the data, active = GI50 up to about 1.1 µM and inactive = higher.
The reader will find reported GI50 values listed item by item below.
quantity.name: GI50

| molecule | quantity.name | reading |
| --- | --- | --- |
| Nn1c(-c2ccccc2)n[nH]c1=O | GI50 | > 100 µM (inactive) |
| Nn1c(-c2ccccc2)nc2ccc(Br)cc2c1=O | GI50 | 46.6 µM (inactive) |
| CCCCCc1c2nc(c(CCCCC)c3ccc([nH]3)c(CCCCC)c3nc(c(CCCCC)c4ccc1[nH]4)C=C3)C=C2 | GI50 | > 100 µM (inactive) |
| Oc1ccc2ccccc2c1OCc1nnc(CCCCCCCCc2nnc(COc3c(O)ccc4ccccc34)n2Nc2ccccc2)n1Nc1ccccc1 | GI50 | 18 µM (inactive) |
| COc1cccc(N2C(=O)C3c4[nH]c5ccccc5c4C4c5ccccc5CCC4C3C2=O)c1 (stereo not given) | GI50 | > 9.14 µM (inactive) |

====

# Test system: UO-31
# experiment.summary: NCI tumour cell line growth inhibition, 48 h
Activity calls are given as the source filed them. Cut-off read from the data, not from the text of the source: active = GI50 up to about 1.1 µM and inactive = higher.
Outcome codes: active, inactive

| compound | category.label |
| --- | --- |
| OC1(c2ccccc2)CC2CCC(C1)N2CCCC(O)(c1ccccc1)c1ccccc1 (configuration not stated) | inactive |
| COC(=O)C1=C(C(=O)OC)C(C(=O)OC)C(C(=O)OC)=C1C(=O)OC | inactive |
| COc1cc(Cn2c3c(c4c(CN(C)C)c(O)ccc42)C(=O)c2ccccc2C3=O)cc(OC)c1 | inactive |
| CCCCN(CCCC)CCCCNc1c(C)cnc2cc(Cl)ccc12 | inactive |
| CN(C)c1nc(N(C)C)n2nc(-c3ccccc3[N+](=O)[O-])nc2n1 | inactive |
| O=C(OCCCl)C1OC(n2cc(F)c(=O)[nH]c2=O)CC1O (configuration not stated) | inactive |
| COc1cc2cc(C(=O)N3CC(COS(C)(=O)=O)c4ccc(O)cc43)[nH]c2c(OC)c1OC (configuration not stated) | active |
| O=C(C(=O)N1CCc2ccccc21)c1c[nH]c2ccccc12 | inactive |
| COc1ccc2c(c1)CCN1CCc3ccccc3CC21 (configuration not stated) | inactive |
| Cc1cccc(-c2nnc3s/c(=C\c4ccc(N(C)C)cc4)c(=O)n23)c1 | inactive |
| CCCCNC(=S)Nn1c(-c2ccccc2)nc2ccccc2c1=O | inactive |
| Cc1nn(-c2ccccc2)c2c1CC(=O)Nc1ccccc1-2 | inactive |
| O=C(O)CSc1nnc(/C=C/c2ccccc2)[nH]1 | inactive |
| C=C[C@@H]1OC(=O)O[C@H]1CO | inactive |
| COc1cccc(C=C2N=C(c3ccccc3)N(n3c(-c4ccccc4)nc4ccccc4c3=O)C2=O)c1 | inactive |
| CC(OC(C)(C)C)[C@H](NC(=O)OCc1ccccc1)C(=O)NC(OCc1ccccc1)[C@H]1COC(C)(C)O1 (some centres not stated) | inactive |
| CCOC(=O)CC[C@H](N)C(=O)N[C@H](Cc1ccc(N(CCCl)CCCl)cc1)C(=O)OCC | active |
| CC(C)(C=O)CC(C#N)/C(=N\NC(N)=O)C(=O)Nc1ccccc1C(N)=O (configuration not stated) | inactive |
| N#CCCN(CCC#N)c1ccc(/C=C2\N=C(CN3C(=O)c4ccccc4C3=O)OC2=O)cc1 | inactive |
| CCOC(=O)Oc1ccc2c(c1)c(=O)c1c(NCCCN(CC)CC)ccc3nnn2c31 | active |
| N=c1oc2ccccc2cc1-c1nc2ccccc2[nH]1 | inactive |
| C#CC1(OC(C)=O)CCC2C3CC=C4C=C(OC(C)=O)CCC4(C)C3CCC21C (configuration not stated) | inactive |
| COC(C/C(=C/CO[Si](C(C)C)(C(C)C)C(C)C)C(=O)N(C(=O)OC(C)(C)C)c1ccccc1I)OC | inactive |
| CC(=O)N(CN1C(=O)CCC1C(=O)O)c1ccc(C)cc1 (configuration not stated) | inactive |
| CC(C)(C)c1cc(C2NC(=O)NC2=O)cc(C(C)(C)C)c1O (configuration not stated) | inactive |
| Nc1nc(O)c2[nH]nnc2n1 | active |
| O=c1c2cc(I)ccc2nc(SCc2n[nH]c(=S)o2)n1Cc1ccccc1 | active |
| N#CC(NCCc1ccccc1)c1ccc(C(C#N)NCCc2ccccc2)cc1 (configuration not stated) | inactive |
| CCCCCc1c2nc(c(CCCCC)c3ccc([nH]3)c(CCCCC)c3nc(c(CCCCC)c4ccc1[nH]4)C=C3)C=C2 | inactive |
| O=S(=O)(CCBr)CCBr | inactive |
| CCN(CC)CCCC(C)Nc1ccnc2cc3ccccc3cc12 (configuration not stated) | inactive |
| CCOC(=O)C(C#N)C1=CC(=O)C(=O)c2ccc(OC)cc21 (configuration not stated) | inactive |
| CN(C)N1C(=O)SCC(c2ccccc2)(c2ccccc2)C1=O | inactive |
| N#Cc1c(N)nc(-c2ccc(Cl)cc2)c2c1-c1ccccc1S(=O)(=O)CC2 | inactive |
| C/C(=N/NC(=S)N1CCCCC1)c1cccc(/C(C)=N\NC(=S)N2CCCCC2)n1 | inactive |
| Nc1cc(=O)n(-c2ccccc2)c(=S)n1-c1ccccc1 | inactive |
| COC1=CC(=O)[C@]2(C)[C@H](C1=O)C(C)[C@H]2c1ccc(OC)cc1 (some centres not stated) | inactive |
| CC(=O)OC1=NN=C2COC(c3ccccc3OC(C)=O)=NN2C1 | inactive |
| CSc1ncc2c(n1)-c1ccccc1OC2NC1CC1 (configuration not stated) | inactive |
| COc1ccc(C[C@H](N)C(=O)NC2C(CO)OC(n3cnc4c(N(C)C)ncnc43)C2O)cc1 (some centres not stated) | inactive |
| O=C(N/N=C\c1c(O)ccc2ccccc12)c1ccncc1 | active |
| CCCSc1ccc2[nH]c(N3C(=O)/C(=C/c4ccc(O)c(OC)c4)N=C3c3ccccc3)cc2c1 | inactive |
